System: A673/TR/shEF
TEST_METHOD_NOTES: cell viability (LOESS-normalised, relative to median of negative controls) (log2 ratio); higher = more viable cells (less compound effect), active = hit call of the paper (over 3 MAD below the median)
EXPERIMENTAL_CONDITIONS: 2.5 µM; library screen: screen1; EWS-FLI1 expression: high (no doxycycline); treatment time: 72 h
The campaign covered roughly 3,200 compounds. About 300 (9.4%) showed activity. This is one part of a sample in which actives are shown more often than they occur.
// cell viability (log2) lookup, one value per entry
Keep the answer to the number alone.

1. COC(=O)C[C@H]1C(C)(C)C(OC(C)=O)[C@]2(O)C=C3C(CC[C@]4(C)C3CC(=O)O[C@H]4c3ccoc3)C1(C)C2=O (stereo partly drawn) ... 0.0649
2. CC(C)=CCc1c(O)c(C(=O)CC(C)C)c2oc(=O)cc(-c3ccccc3)c2c1O ... 0.107

Next, consider the following molecule.
**Q:** Request the reported cell viability (log2) associated with COc1ccc2c(c1)CCC1C2CCC2(C)C1C[C@@H](O)[C@@H]2O (stereo partly drawn)
**A:** 0.204

Reference for the values: the supplement of paper PMC6089552
